boiling point reference

compound	boiling point
CC(=O)c1cccc(C(F)(F)F)c1	199 °C
Cc1ccc(O)cc1Cl	228 °C
N#Cc1ccnc2ccccc12	242 °C
C(#Cc1ccccc1)c1ccccc1	300 °C
CCCCCCCCCCCCCCCCCCCCO	372 °C
CC(Cl)(Cl)C(=O)O	188 °C
O=COCC=Cc1ccccc1	252 °C
CC(C(=O)[O-])c1ccccc1 (configuration not stated)	261 °C
CC=Cc1ccc2c(c1)OCO2	253 °C
CCCCCCCC(=O)OC(=O)CCCCCCC	282 °C
CC(C)(Br)C(=O)O	199 °C
CC1CNCCN1 (configuration not stated)	153 °C
NCCCN	140 °C
CC(C)[C@@H]1CC[C@@H](C)[C@H](O)C1	218 °C
CCCCN=C=S	168 °C
O=C(c1ccccc1)c1ccncc1	315 °C
Clc1ccc(Br)cc1	196 °C
